- Test system: primary hepatocytes isolated from rats
- protocol_summary: Cell protective effects against doxorubicin in hepatocytes (WST-1 cell viability)
- Format: cell-based
- measurement_parameters: Hepatocyte; primary rat hepatocytes pretreated with compound for 30 min, then doxorubicin; viability by WST-1 after 24-48 h
Please provide measured pEC50 for the entries that follow.
Note on pEC50: it is the negative log10 of concentration, concentration in mol/L.

Ask: What does the data say about its pEC50? Entry: `O=C1CN(CC[C@H]2CSC(c3cc4cccc(NC5CCOCC5)c4[nH]3)=N2)CCN1`
Reply: 6.43

Ask: Let us now turn to `CC(C)CN(CC(C)C)c1cc(Oc2ccccc2)cc2cc(C3=N[C@@H](CCN4CCCC4)CS3)[nH]c12`
Reply: 6.89

Ask: Let us now turn to `Cc1cc(NC2CCC(F)(F)CC2)c2[nH]c(C3=N[C@@H](CCN4CCOCC4)CS3)cc2c1`
Reply: 6.52

* * *

- System: primary hepatocytes isolated from rats
- protocol_summary: Cell protective effects against doxorubicin in hepatocytes (WST-1 cell viability)
- Format: cell-based
- measurement_parameters: primary rat hepatocytes pretreated with compound for 30 min, then doxorubicin; viability by WST-1 after 24-48 h
parameter_measured: pEC50
Note on pEC50: it is the negative log10 of concentration, concentration in mol/L.

Ask: What does the data say about its pEC50? Entry: O=C(C1CCCO1)N1CCN(CC[C@H]2CSC(c3cc4cc(Oc5ccccc5)cc(NC5CCCC5)c4[nH]3)=N2)CC1 (stereo partly drawn)
Reply: 7.05

Ask: Let us now turn to `CN(c1cc(F)cc2cc(C3=N[C@H](CO)CS3)[nH]c12)C1CCCC1`
Reply: 5.88

Ask: Let us now turn to `CCOc1cc(NC2CCCC2)c2[nH]c(C3=N[C@@H](CCO)CS3)cc2c1`
Reply: 6.70

Ask: Let us now turn to `O=C1CN(CC[C@H]2CSC(c3cc4cc(Oc5ccccc5)cc(NC5CCCC5)c4[nH]3)=N2)CCN1`
Reply: 6.57

Ask: Let us now turn to `Fc1ccccc1N1CCN(CC[C@H]2CSC(c3cc4cc(Oc5ccccc5)cc(NC5CCCC5)c4[nH]3)=N2)CC1`
Reply: 6.80

Ask: Let us now turn to `CC(=O)N1CCN(CC[C@H]2CSC(c3cc4cc(Oc5ccccc5)cc(NC5CCCC5)c4[nH]3)=N2)CC1`
Reply: 6.08

Ask: Let us now turn to `CC(C)(C)OC(=O)N1CCN(CC[C@H]2CSC(c3cc4cc(Oc5ccccc5)cc(NC5CCCC5)c4[nH]3)=N2)CC1`
Reply: 6.70

Ask: Let us now turn to `O=C(CO)N1CCN(CC[C@H]2CSC(c3cc4cc(Oc5ccccc5)cc(NC5CCCC5)c4[nH]3)=N2)CC1`
Reply: 6.60

Ask: Let us now turn to `Cc1cc(NC2CCOCC2)c2[nH]c(C3=N[C@@H](CCO)CS3)cc2c1`
Reply: 6.89

Ask: Let us now turn to `CS(=O)(=O)CC[C@@H]1CSC(c2cc3cccc(NC4CCOCC4)c3[nH]2)=N1`
Reply: 6.59

* * *

Please provide measured EC50 for the entries that follow.
- Tested on: primary hepatocytes isolated from rats
- protocol_summary: Cell protective effects against doxorubicin in hepatocytes (WST-1 cell viability)
- Type: cell-based
- measurement_parameters: Hepatocyte; primary rat hepatocytes pretreated with compound for 30 min, then doxorubicin; viability by WST-1 after 24-48 h
Expressed in µM, but write only the number.

Ask: What does the data say about its EC50? Entry: `O=C(O)C[C@H]1CSC(c2cc3cc(Oc4ccccc4)cc(NC4CCOCC4)c3[nH]2)=N1`
Reply: 1.29

Ask: Let us now turn to CC1SC(c2cc3cccc(NCC4CCOCC4)c3[nH]2)=N[C@H]1C(O)C1CCCN1 (some centres unmarked)
Reply: 0.21

Ask: Let us now turn to `c1cc(NC2CCCC2)c2[nH]c(C3=N[C@H](CN4CCCC4)CS3)cc2c1`
Reply: 0.91

Ask: Let us now turn to `Cc1cc(NC2CCC(F)(F)CC2)c2[nH]c(C3=N[C@@H](CCN4CCNC(=O)C4)CS3)cc2c1`
Reply: 0.09

Ask: Let us now turn to `O=C(O)[C@@H]1CSC(c2cc3cccc(NC4CCOCC4)c3[nH]2)=N1`
Reply: 29.4

Ask: Let us now turn to `O=C(O)C[C@@H]1CSC(c2cc3cc(Oc4cccnc4)cc(NC4CCOCC4)c3[nH]2)=N1`
Reply: 7.92

Ask: Let us now turn to `NC[C@@H]1CSC(c2cc3cccc(NC4CCCC4)c3[nH]2)=N1`
Reply: 1.98
